# credit: patent US11834453B2

biological target: ErbB2 insYVMA (HER2-YVMA, SEQ ID NO: 2) (Homo sapiens, UniProt P04626, INS775YVMA/P1170A); assay: biochemical; details: Assay 1 IC50 (nM), ErbB2 insYVMA enzyme assay
Sequence (P04626 with tags, fused parts or gaps INS775YVMA/P1170A limits assumed): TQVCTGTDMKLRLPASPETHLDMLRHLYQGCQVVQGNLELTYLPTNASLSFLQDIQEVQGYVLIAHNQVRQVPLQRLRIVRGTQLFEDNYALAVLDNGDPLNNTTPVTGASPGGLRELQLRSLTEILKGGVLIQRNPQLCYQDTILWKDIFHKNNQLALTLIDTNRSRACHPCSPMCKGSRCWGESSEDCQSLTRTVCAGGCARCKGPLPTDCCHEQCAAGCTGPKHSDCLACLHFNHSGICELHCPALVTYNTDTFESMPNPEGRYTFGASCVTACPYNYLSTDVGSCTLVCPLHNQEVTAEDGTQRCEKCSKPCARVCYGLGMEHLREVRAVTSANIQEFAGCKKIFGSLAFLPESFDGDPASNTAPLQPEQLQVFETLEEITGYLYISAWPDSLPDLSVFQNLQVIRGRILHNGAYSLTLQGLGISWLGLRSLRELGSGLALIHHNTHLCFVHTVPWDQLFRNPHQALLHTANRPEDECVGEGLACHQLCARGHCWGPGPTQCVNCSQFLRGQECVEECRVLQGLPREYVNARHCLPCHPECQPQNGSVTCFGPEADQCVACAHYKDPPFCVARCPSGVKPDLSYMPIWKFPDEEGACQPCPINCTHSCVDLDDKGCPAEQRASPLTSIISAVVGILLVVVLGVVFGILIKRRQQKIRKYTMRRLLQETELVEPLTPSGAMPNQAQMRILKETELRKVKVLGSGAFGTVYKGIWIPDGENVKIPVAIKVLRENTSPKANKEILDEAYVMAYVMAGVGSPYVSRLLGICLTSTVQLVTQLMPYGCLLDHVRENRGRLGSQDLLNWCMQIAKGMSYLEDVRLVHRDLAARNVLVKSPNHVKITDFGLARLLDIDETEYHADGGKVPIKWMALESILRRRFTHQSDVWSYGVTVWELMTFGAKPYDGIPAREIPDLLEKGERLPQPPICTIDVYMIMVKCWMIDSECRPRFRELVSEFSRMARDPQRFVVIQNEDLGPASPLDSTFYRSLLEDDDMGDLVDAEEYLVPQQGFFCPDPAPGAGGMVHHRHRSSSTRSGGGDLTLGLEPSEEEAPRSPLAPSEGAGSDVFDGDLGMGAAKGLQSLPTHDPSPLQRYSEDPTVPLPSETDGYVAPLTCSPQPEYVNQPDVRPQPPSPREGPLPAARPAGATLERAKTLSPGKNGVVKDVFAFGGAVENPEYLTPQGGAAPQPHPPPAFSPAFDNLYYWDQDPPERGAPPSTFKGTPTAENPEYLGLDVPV
Structures can show the parent of a compound that is named as a salt.
Binary label based on IC50 with cut-off 50 nM: below gives class 1, not below gives class 0.

Solved entries:
COCCOc1ncc2ncnc(Nc3ccc(Oc4ccc5c(c4)ncn5C)c(C)c3)c2n1 [Example 76, 2,2,2-trifluoroacetate]	class 0
Cn1cnc2cc(Oc3ccc(Nc4ncnc5cnc(N6CCN7CCOC[C@H]7C6)nc45)cc3Cl)ccc21.O=C(O)C(F)(F)F.O=C(O)C(F)(F)F [Example 150, bis(2,2,2-trifluoroacetate)]	class 1
Cc1cc(Nc2ncnc3cnc(N4CCOCC4)nc23)c(F)cc1Oc1ccc2c(c1)ncn2C.O=C(O)C(F)(F)F [Example 78, 2,2,2-trifluoroacetate]	class 0

Task: State whether 50 nM exceeds IC50 recorded for Cn1cnc2cc(Oc3ccc(Nc4ncnc5cnc(N6C[C@H]7CC[C@@H]6CO7)nc45)cc3Cl)ccc21 [Example 451] .
Result: class 1

Task: State whether 50 nM exceeds IC50 recorded for Cc1cc(Nc2ncnc3cnc(N4CC5CC(C4)C5O)nc23)ccc1Oc1ccc2c(c1)ncn2C (stereo not shown) [Example 464] .
Result: class 1

Task: State whether 50 nM exceeds IC50 recorded for Cc1c(Oc2ccc3c(c2)ncn3C)ccc(Nc2ncnc3cnc(N(C)C)nc23)c1F [Example 71, 2,2,2-trifluoroacetate] .
Result: class 0

Task: State whether 50 nM exceeds IC50 recorded for Cc1cc(Nc2ncnc3cnc(N4CC(O)(C(F)F)C4)nc23)ccc1Oc1ccc2c(c1)ncn2C [Example 160, hydrochloride] .
Result: class 1

Task: State whether 50 nM exceeds IC50 recorded for Cc1cc(Nc2ncnc3cnc(N4CCOCC4)nc23)ccc1Oc1ccc2c(c1)ncn2C1CC1 [Example 73, 2,2,2-trifluoroacetate] .
Result: class 0

Task: State whether 50 nM exceeds IC50 recorded for Cn1cnc2cc(Oc3ccc(Nc4ncnc5cnc(N6CCC67COC7)nc45)cc3Cl)ccc21.O=C(O)C(F)(F)F [Example 145] .
Result: class 1

Task: State whether 50 nM exceeds IC50 recorded for Cc1cc(Nc2ncnc3cnc(N4CCOCC4)nc23)ccc1Oc1cc(F)c2c(c1)ncn2C.O=C(O)C(F)(F)F [Example 70, 2,2,2-trifluoroacetate] .
Result: class 0

Task: State whether 50 nM exceeds IC50 recorded for Cn1cnc2cc(Oc3ccc(Nc4ncnc5cnc(N6CC7CCC(C6)O7)nc45)cc3Cl)ccc21 [Example 447] .
Result: class 1

Task: State whether 50 nM exceeds IC50 recorded for Cc1cc(Nc2ncnc3cnc(N4CC5CC4CO5)nc23)ccc1Oc1ccc2c(c1)ncn2C.O=C(O)C(F)(F)F (stereo not shown) [Example 77, 2,2,2-trifluoroacetate] .
Result: class 1

====

target: BCRP (Homo sapiens (Human)); assay: BCRP transfected MDCKII permeability/efflux, Assay 8; type: in vitro ADME; conditions: dog, efflux ratio Papp(B-A)/Papp(A-B), read-out: Assay 8 Pe Ratio
Sequence (Q9UNQ0 whole entry): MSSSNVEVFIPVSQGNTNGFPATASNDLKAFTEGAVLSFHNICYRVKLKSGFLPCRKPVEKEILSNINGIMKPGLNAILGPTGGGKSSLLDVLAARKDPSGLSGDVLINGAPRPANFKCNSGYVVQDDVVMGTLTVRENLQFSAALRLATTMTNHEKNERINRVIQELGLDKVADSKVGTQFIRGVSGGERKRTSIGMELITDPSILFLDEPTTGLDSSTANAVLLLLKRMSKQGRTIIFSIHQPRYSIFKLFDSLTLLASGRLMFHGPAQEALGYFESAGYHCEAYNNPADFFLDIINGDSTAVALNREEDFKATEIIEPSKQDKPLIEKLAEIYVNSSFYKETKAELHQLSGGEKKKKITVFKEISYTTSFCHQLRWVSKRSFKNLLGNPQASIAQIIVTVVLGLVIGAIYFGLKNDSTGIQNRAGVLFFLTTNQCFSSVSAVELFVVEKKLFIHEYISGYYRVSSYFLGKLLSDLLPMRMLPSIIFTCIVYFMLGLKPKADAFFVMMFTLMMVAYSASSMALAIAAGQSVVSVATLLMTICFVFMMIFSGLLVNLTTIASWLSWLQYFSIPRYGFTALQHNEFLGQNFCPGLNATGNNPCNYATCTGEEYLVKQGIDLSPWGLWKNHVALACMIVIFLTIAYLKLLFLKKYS
Binary label based on efflux ratio at 2 h, 1 μM with cut-off 1: below gives yes, not below gives no.

Solved entries:
Cc1cc(Nc2ncnc3cnc(NCC4CC4)nc23)ccc1Oc1ccc2c(c1)ncn2C [Example 20]	yes
Cc1cc(Nc2ncnc3cnc(N(C)C)nc23)ccc1Oc1ccc2scnc2c1 [Example 271]	yes
Cc1cc(Nc2ncnc3cnc(NC4(C)CC4)nc23)ccc1Oc1ccc2c(c1)ncn2C [Example 268]	no
Cc1cc(Nc2ncnc3cnc(NC4CCC4)nc23)ccc1Oc1ccc2c(c1)ncn2C [Example 14]	yes
Cc1cc(Nc2ncnc3cnc(N(C)C)nc23)ccc1Oc1ccc2csnc2c1 [Example 49, 2,2,2-trifluoroacetate]	no

Please examine the following record next.
Task: State whether 1 exceeds efflux ratio at 2 h, 1 μM recorded for Cc1c(Oc2ccc3c(c2)ncn3C)ccc(Nc2ncnc3cnc(N4CCOCC4)nc23)c1F [Example 263] .
Result: no

====

Measured log10 of IC50, listed per entry for reference.
biological target: ErbB2 with Exon 20 YVMA insertion (HER2-YVMA) (Homo sapiens (Human), UniProt P04626, INS775YVMA); test: Cellular phosphorylation assay, constitutive ErbB2 phosphorylation (Y1196) in engineered NIH 3T3 cells, Assay 4
Sequence (P04626 other isoform, or with tags, fused parts or gaps ins YVMA behind 775): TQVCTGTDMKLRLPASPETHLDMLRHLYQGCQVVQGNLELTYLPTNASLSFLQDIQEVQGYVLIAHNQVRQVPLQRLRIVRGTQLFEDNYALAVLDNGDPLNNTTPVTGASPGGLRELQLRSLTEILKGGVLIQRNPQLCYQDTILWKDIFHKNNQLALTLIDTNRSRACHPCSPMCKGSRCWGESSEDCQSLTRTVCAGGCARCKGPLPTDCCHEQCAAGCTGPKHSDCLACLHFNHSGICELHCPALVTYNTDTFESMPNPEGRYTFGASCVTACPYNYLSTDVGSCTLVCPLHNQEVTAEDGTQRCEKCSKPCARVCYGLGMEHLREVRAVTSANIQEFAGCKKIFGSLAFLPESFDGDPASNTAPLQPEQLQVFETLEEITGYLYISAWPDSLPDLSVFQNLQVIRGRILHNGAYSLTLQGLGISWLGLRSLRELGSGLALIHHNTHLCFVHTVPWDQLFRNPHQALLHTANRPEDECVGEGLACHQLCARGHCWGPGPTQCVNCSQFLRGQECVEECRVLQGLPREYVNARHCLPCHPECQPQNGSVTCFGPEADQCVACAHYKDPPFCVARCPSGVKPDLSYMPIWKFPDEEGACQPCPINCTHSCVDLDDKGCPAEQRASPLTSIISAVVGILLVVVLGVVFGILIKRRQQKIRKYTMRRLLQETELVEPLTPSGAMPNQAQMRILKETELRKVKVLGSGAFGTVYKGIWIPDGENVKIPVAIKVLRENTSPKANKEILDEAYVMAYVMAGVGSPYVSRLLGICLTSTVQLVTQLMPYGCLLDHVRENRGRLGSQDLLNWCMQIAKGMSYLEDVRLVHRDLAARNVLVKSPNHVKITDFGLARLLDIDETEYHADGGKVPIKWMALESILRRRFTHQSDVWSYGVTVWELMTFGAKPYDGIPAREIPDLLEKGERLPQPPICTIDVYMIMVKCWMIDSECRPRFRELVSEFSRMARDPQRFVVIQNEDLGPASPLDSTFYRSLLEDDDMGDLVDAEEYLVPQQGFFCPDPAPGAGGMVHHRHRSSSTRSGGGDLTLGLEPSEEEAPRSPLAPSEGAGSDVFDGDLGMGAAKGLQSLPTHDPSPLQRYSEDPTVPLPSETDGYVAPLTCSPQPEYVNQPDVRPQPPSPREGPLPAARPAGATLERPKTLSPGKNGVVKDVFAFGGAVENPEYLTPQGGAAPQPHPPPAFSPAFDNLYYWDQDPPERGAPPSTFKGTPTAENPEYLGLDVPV
Hi team, quick reminder: these entries are log10 of IC50 (nM).

Worked cases, log10 of IC50 given:
Cn1cnc2cc(Oc3ccc(Nc4ncnc5cnc(N6CC[C@@H](CC#N)C6)nc45)cc3Cl)ccc21 [Example 134]	0.93
Cc1cc(Nc2ncnc3cnc(N4CCOC(C(F)F)C4)nc23)ccc1Oc1ccc2c(c1)ncn2C (stereo not drawn) [Example 181]	1.73
Cc1cc(Nc2ncnc3cnc(N4C[C@H]5C[C@@H]4CO5)nc23)ccc1Oc1cc(F)c2c(c1)ncn2C [Example 204]	1.12
Cc1cc(Nc2ncnc3cnc(N4CC[C@H](CC#N)C4)nc23)ccc1Oc1ccc2c(c1)ncn2C [Example 469]	1.12

Task: Return reported log10 of IC50; argument: Cc1cc(Nc2ncnc3cnc(N4C[C@@H]5C[C@H]4CO5)nc23)ccc1Oc1ccc2c(c1)ncn2C [Example 274]
Result: 1.08

Task: Return reported log10 of IC50; argument: Cn1cnc2cc(Oc3ccc(Nc4ncnc5cnc(N6C[C@H]7C[C@@H]6CO7)nc45)cc3Cl)ccc21 [Example 455]
Result: 1.76

Task: Return reported log10 of IC50; argument: Cc1cc(Nc2ncnc3cnc(NC4CCC4(F)F)nc23)ccc1Oc1ccc2c(c1)ncn2C (stereo not drawn) [Example 52]
Result: 2.20

Task: Return reported log10 of IC50; argument: Cc1c(Oc2ccc3c(c2)ncn3C)ccc(Nc2ncnc3cnc(N4CC[C@](C)(O)C4)nc23)c1F [Example 97]
Result: 1.68

Task: Return reported log10 of IC50; argument: O[C@@H]1[C@@H]2CC[C@H]1CN(c1ncc3ncnc(Nc4ccc(Oc5ccn6ncnc6c5)c(Cl)c4)c3n1)C2 [Example 341]
Result: 1.63

Task: Return reported log10 of IC50; argument: Clc1cc(Nc2ncnc3cnc(N4CC[C@@]45CCOC5)nc23)ccc1Oc1ccn2ncnc2c1 [Example 434]
Result: 2.21

Task: Return reported log10 of IC50; argument: CON1CCN(c2ncc3ncnc(Nc4ccc(Oc5ccn6ncnc6c5)c(Cl)c4)c3n2)CC1 [Example 436]
Result: 1.79

Task: Return reported log10 of IC50; argument: Cc1cc(Nc2ncnc3cnc(N4CCOC5(CC5)C4)nc23)ccc1Oc1ccc2c(c1)ncn2C [Example 58]
Result: 1.03

Task: Return reported log10 of IC50; argument: Cc1cc(Nc2ncnc3cnc(N4CC(C)(O)C4)nc23)ccc1Oc1ccc2c(c1)ncn2C [Example 246]
Result: 2.01

Task: Return reported log10 of IC50; argument: Cc1cc(Nc2ncnc3cnc(N4CC[C@H]4C(F)F)nc23)ccc1Oc1ccc2c(c1)ncn2C [Example 388]
Result: 1.72

Task: Return reported log10 of IC50; argument: Cc1cc(Nc2ncnc3cnc(N4CC[C@@H](C#N)C4)nc23)ccc1Oc1ccn2ncnc2c1 [Example 404]
Result: 2.26

====

Measured efflux ratio at 2 h, 1 μM, listed per entry for reference.
molecular target: MDR1 (P-gp) (Homo sapiens (Human), UniProt P08183); test: MDR1 transfected LLC-PK1 permeability/efflux, Assay 6; conditions: pig, LLC-PK1, Assay 6 Pe Ratio, efflux ratio Papp(B-A)/Papp(A-B), MDR1 transfected LLC-PK1
Give the figure only, with no unit attached.

Cc1cc(Nc2ncnc3cnc(N4CC5CC4CO5)nc23)ccc1Oc1ccc2c(c1)ncn2C.O=C(O)C(F)(F)F (stereo not shown) [Example 77]	1.7

Task: Hello, I am looking for reported efflux ratio at 2 h, 1 μM with MDR1 (P-gp) (Homo sapiens (Human), UniProt P08183) for Cc1cc(Nc2ncnc3cnc(-c4cscn4)nc23)ccc1Oc1ccc2c(c1)ncn2C [Example 235] . Could you help?
Result: 2.9

Task: Hello, I am looking for reported efflux ratio at 2 h, 1 μM with MDR1 (P-gp) (Homo sapiens (Human), UniProt P08183) for Cc1cc(Nc2ncnc3cnc(N4CC[C@H](S(C)(=O)=O)C4)nc23)ccc1Oc1ccc2c(c1)ncn2C [Example 119] . Could you help?
Result: 29.6

Task: Hello, I am looking for reported efflux ratio at 2 h, 1 μM with MDR1 (P-gp) (Homo sapiens (Human), UniProt P08183) for Cc1cc(Nc2ncnc3cnc(N[C@@H]4CCOC4)nc23)ccc1Oc1ccc2c(c1)ncn2C [Example 275] . Could you help?
Result: 6

====

Consider the following IC50 values measured on UniProtKB P00533.
Sequence (P00533 25-1210): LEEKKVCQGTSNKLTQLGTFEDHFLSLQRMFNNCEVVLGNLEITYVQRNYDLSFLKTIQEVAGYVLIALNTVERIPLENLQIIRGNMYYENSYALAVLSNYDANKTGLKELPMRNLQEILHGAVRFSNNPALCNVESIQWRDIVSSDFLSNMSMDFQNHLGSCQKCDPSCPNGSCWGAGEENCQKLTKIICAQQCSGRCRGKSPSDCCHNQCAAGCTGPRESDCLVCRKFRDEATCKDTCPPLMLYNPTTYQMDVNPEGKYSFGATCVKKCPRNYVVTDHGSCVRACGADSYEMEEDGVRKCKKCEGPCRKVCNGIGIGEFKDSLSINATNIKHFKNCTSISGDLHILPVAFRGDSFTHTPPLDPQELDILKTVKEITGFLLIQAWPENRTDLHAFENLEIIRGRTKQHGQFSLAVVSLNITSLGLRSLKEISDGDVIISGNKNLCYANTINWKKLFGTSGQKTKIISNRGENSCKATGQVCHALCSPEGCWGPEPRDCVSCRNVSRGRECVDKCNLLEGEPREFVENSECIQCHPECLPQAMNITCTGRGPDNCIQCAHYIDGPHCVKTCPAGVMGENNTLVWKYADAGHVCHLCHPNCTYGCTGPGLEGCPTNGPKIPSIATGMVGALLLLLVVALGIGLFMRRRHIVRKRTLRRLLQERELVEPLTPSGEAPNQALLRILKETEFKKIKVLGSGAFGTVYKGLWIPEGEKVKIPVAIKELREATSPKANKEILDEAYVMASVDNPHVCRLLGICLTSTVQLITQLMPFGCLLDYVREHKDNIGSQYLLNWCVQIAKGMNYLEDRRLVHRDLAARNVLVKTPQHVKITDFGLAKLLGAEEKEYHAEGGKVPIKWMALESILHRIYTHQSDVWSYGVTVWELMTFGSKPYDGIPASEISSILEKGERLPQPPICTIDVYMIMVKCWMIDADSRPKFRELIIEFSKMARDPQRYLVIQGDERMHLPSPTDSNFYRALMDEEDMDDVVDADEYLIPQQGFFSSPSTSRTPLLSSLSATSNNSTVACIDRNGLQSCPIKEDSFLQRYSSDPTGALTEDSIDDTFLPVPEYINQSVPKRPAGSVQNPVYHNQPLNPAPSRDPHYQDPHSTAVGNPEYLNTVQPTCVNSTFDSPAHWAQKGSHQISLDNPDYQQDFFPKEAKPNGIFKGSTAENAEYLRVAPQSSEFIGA

Worked cases, IC50 given:
Cc1cc(Nc2ncnc3cnc(N[C@@H]4CCN(C)C[C@@H]4F)nc23)ccc1Oc1ccc2c(c1)ncn2C [Example 84]	5.38 µM
Cc1cc(Nc2ncnc3cnc(N4CC[C@@H]4C(C)(C)O)nc23)ccc1Oc1ccc2c(c1)ncn2C [Example 397]	≥ 10 µM

Task: Hello, I am looking for reported IC50 with UniProtKB P00533 for Cc1cc(Nc2ncnc3cnc(-c4ccccn4)nc23)ccc1Oc1ccc2c(c1)ncn2C [Example 239] . Could you help?
Result: ≥ 10 µM

Task: Hello, I am looking for reported IC50 with UniProtKB P00533 for CON(C)CCNc1ncc2ncnc(Nc3ccc(Oc4ccc5c(c4)ncn5C)c(C)c3)c2n1 [Example 219] . Could you help?
Result: 2.11 µM

Task: Hello, I am looking for reported IC50 with UniProtKB P00533 for Cc1cc(Nc2ncnc3cnc(N[C@@H](C)COC(F)(F)F)nc23)ccc1Oc1ccc2c(c1)ncn2C [Example 63] . Could you help?
Result: ≥ 10 µM

Task: Hello, I am looking for reported IC50 with UniProtKB P00533 for O=S1(=O)CC[C@@H]2CN(c3ncc4ncnc(Nc5ccc(Oc6ccn7ncnc7c6)c(Cl)c5)c4n3)C[C@@H]21 [Example 433] . Could you help?
Result: ≥ 10 µM

Task: Hello, I am looking for reported IC50 with UniProtKB P00533 for Cc1cc(Nc2ncnc3cnc(N4CC5CC(C4)O5)nc23)ccc1Oc1ccc2c(c1)ncn2C.O=C(O)C(F)(F)F [Example 69, 2,2,2-trifluoroacetate] . Could you help?
Result: ≥ 10 µM
